Attribution: the supplement of paper PMC11208160

assay: recombinant UMI read abundance after kanamycin selection (control-corrected) (log10(CPM+1)); higher = more efficient recombination; extreme values may be limits of the assay; sequences stand for … in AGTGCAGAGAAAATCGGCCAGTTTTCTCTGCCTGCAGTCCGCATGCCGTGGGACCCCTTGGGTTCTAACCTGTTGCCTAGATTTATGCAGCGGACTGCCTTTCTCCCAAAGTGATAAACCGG…AGGTTGGTTTCACT; site = the 11-nt donor;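 further: IS621 bridge recombinase in Escherichia coli cells against a fixed T5 target plasmid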
measurementLabel: recombinant UMI read abundance (log10)

                                   sequence                        measurementlabel  endpointvalue
0  TATGTAACATGGACCGGTTTTCCCGGTAATCCGTATTTGCT (site CATGTAACTAG)  recombinant UMI read abundance (log10)           1.18
1  ACATGACCATGGACCGGTTTTCCCGGTAATCCGTATTTGCC (site ACATGACCTGG)  recombinant UMI read abundance (log10)              0
2  CAAGGCTCATGGACCGGTTTTCCCGGTAATCCGTATTTGAA (site CAAAGCTCTTT)  recombinant UMI read abundance (log10)           2.15
3  GGAACAGCATGGACCGGTTTTCCCGGTAATCCGTATTTGCC (site GGAACAGCTGG)  recombinant UMI read abundance (log10)           3.09
4  TTAGAGACATGGACCGGTTTTCCCGGTAATCCGTATTTGCG (site TTAGAGACTCG)  recombinant UMI read abundance (log10)           2.16
5  TTTGGGGCATGGACCGGTTTTCCCGGTAATCCGTATTTGCT (site TTTGGGGCTAG)  recombinant UMI read abundance (log10)           1.61
6  CATGCGCCATGGACCGGTTTTCCCGGTAATCCGTATTTGTG (site CAGGCGCCTCA)  recombinant UMI read abundance (log10)          0.025
7  AGCTTTCCATGGACCGGTTTTCCCGGTAATCCGTATTTGGA (site AGCTTTCCTTC)  recombinant UMI read abundance (log10)        0.00277
8  CCCGGTCCATGGACCGGTTTTCCCGGTAATCCGTATTTGGA (site CCCGGTCCTTT)  recombinant UMI read abundance (log10)         0.0436
